Molecular target: Fes (UniProt P07332)
Sequence (P07332 whole entry, looked up): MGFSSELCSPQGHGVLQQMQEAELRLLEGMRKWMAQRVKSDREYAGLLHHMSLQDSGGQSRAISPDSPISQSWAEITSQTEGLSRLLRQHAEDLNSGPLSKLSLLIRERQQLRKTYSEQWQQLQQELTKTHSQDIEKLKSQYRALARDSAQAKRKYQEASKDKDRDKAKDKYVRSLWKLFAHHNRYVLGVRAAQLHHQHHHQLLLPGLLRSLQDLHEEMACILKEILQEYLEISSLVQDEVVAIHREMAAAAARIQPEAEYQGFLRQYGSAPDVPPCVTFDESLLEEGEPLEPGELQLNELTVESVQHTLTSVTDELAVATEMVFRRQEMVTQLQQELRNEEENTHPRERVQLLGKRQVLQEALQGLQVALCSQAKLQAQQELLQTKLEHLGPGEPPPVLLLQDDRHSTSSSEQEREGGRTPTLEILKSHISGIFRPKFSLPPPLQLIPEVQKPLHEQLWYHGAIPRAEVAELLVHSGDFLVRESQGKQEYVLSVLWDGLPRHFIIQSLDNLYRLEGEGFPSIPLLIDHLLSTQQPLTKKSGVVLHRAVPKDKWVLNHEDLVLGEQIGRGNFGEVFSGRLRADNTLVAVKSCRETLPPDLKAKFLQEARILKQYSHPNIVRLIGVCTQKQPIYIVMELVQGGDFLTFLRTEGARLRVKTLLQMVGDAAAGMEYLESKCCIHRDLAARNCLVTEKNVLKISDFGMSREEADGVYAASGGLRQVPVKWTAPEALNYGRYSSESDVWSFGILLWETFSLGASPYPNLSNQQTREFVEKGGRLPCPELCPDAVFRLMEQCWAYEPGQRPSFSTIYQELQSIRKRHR
Test: phosphorylation enrichment, bacterial display (enrichment ratio); higher = better substrate or ligand; peptides without Tyr show the background;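 note: 11-residue human phosphosite peptides and single-mutation variants displayed on the E. coli surface, counted by deep sequencing, each peptide's frequency after selection divided by its frequency in the unselected input library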;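 note: frequency after pTyr selection over input frequency; kinase dosed for 20-30% of maximal phosphorylation in three min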
Outcome: criterion met for phosphorylation enrichment of at least 1; criterion not met for anything lower.

Completed entries (count: 3):
-- ask Can GFQPDYGQPAG [SYP_Y278_YF] be said to have phosphorylation enrichment at or above 1?
-- reply criterion not met

-- ask Can EEGESYVCSSD [DCX_Y125] be said to have phosphorylation enrichment at or above 1?
-- reply criterion met

-- ask Can AGQEKYSAMRD [HRAS_Y64_E63K] be said to have phosphorylation enrichment at or above 1?
-- reply criterion not met

New cases:
-- ask Can NIEPVYLNMLL [ATR_Y317] be said to have phosphorylation enrichment at or above 1?
-- reply criterion met

-- ask Can PMQLPHDSTWE [PDGFRB_Y589_Y589H] be said to have phosphorylation enrichment at or above 1?
-- reply criterion met

-- ask Can ARMTNCGLPRF [TSPAN12_Y138_Y138C_YF] be said to have phosphorylation enrichment at or above 1?
-- reply criterion not met
